Origin of measurements: ChEMBL document CHEMBL1201862

Parameter GI50: see the listing below.
System: A549
Experiment: NCI tumour cell line growth inhibition, 48 h
Calls of active or inactive are those of the source. Cut-off read from the data, not from the text of the source: active = GI50 up to about 1.1 µM and inactive = higher.

Example compounds with recorded GI50:
>>> result("C=C(Cl)/C(=C\\Cl)CCC(Cl)C(C)C (stereo not given)")
"> 100 µM (inactive)"
>>> result("CC(=O)OCC(OC(C)=O)C(OC(C)=O)C(OC(C)=O)C(=O)CNn1c(-c2ccc(C)cc2)nc2ccccc2c1=O (stereo not given)")
"> 100 µM (inactive)"
>>> result("CCOC(=O)COc1cccc2occc(=O)c12")
"> 100 µM (inactive)"
>>> result("C[C@@H]1C[C@H]2[C@@H]3CCC4=CC(=O)C=C[C@]4(C)[C@@]3(Cl)[C@@H](Cl)C[C@]2(C)[C@@]1(O)C(=O)COP(=O)(O)O")
"> 100 µM (inactive)"

Exam item: Check the records and state GI50 for `CCC(C)(C)n1c(C)nc2c1C(=O)c1ccccc1C2=O`
Marked response: 36.5 µM (inactive)

###

Tested on: CCRF-CEM
Assay: NCI tumour cell line growth inhibition, 48 h
The source made the active and inactive calls. Rule as the data show it: active = GI50 up to about 1.1 µM and inactive = higher.
// one of active, inactive, no free text

>>> class_label("COc1cc(CNc2ccc(C)cc2)cc(OC)c1OC")
"active"
>>> class_label("S=C(c1c[nH]c2ccccc12)N1CCN(c2ccccc2)CC1")
"inactive"
>>> class_label("Nc1ncnc2c1ncn2[C@@H]1C[C@H](NO)[C@@H](O)[C@H]1O")
"inactive"
>>> class_label("Cn1c2ccccc2c2c3c(c4c5ccccc5n(C)c4c21)C(=O)NC3=O")
"inactive"
>>> class_label("O=C(O)c1cccc(CC(Br)C(=O)O)c1 (centres undefined)")
"inactive"

Exam item: In this assay, the call recorded for CC(C)N(C(=O)C12C3C4C1(I)C1C2C3(I)C41C(=O)N(C(C)C)C(C)C)C(C)C (centres undefined) was what?
Marked response: inactive

Exam item: In this assay, the call recorded for C[N+](C)(C)C1CC([N+](C)(C)C)C2c3ccccc3C21 (centres undefined) was what?
Marked response: inactive

Exam item: In this assay, the call recorded for `Cc1ccc(Cl)c2[nH]c(-c3ccccc3)cc(=O)c12` was what?
Marked response: inactive

Exam item: In this assay, the call recorded for `C/C(=N\NS(=O)(=O)c1ccccc1)c1ccc[n+]([O-])n1` was what?
Marked response: inactive

Exam item: In this assay, the call recorded for COc1c(OC(C)=O)c(OC(C)=O)cc2c1-c1ccc(OC)c(=O)cc1C(NC(C)=O)CC2 (centres undefined) was what?
Marked response: active

Exam item: In this assay, the call recorded for `CCc1oc2ccccc2c1C(=O)c1cc(Br)c(O)c(Br)c1` was what?
Marked response: inactive

Exam item: In this assay, the call recorded for `CCn1c2ccc(C(=O)CCCN3CCCCC3)cc2c2cc(C(=O)CCCN3CCCCC3)ccc21` was what?
Marked response: inactive

Exam item: In this assay, the call recorded for `CCC(C)(C)n1c(C)nc2c1C(=O)c1ccccc1C2=O` was what?
Marked response: inactive

Exam item: In this assay, the call recorded for `O=C1C(=Cc2ccc(F)cc2)C(=O)c2ccccc21` was what?
Marked response: inactive

Exam item: In this assay, the call recorded for `CC(C)OC(=O)[C@@H]1OC(C)(C)O[C@H]1C(=O)OC(C)C` was what?
Marked response: inactive

Exam item: In this assay, the call recorded for `Cc1nc2sccn2c1C(=O)NN` was what?
Marked response: inactive

Exam item: In this assay, the call recorded for `O=[N+]([O-])c1cc(/C=N/NS(=O)(=O)c2ccc(F)cc2)c(O)c([N+](=O)[O-])c1` was what?
Marked response: inactive

Exam item: In this assay, the call recorded for `CCCCCCCCCCCCCC(=O)CBr` was what?
Marked response: active

Exam item: In this assay, the call recorded for OC12CCC3(OC4CCCCO4)c4ccccc4C3C1c1ccccc12 (centres undefined) was what?
Marked response: inactive

Exam item: In this assay, the call recorded for C[N+](C)(C)CC1CCC/C1=N/O (centres undefined) was what?
Marked response: inactive

Exam item: In this assay, the call recorded for `N=C(CC(=O)Nc1ccccn1)c1ccccc1` was what?
Marked response: inactive

Exam item: In this assay, the call recorded for COc1cccc(C2c3cc4c(cc3OC3COC(=O)C32)OCO4)c1OC (centres undefined) was what?
Marked response: inactive

Exam item: In this assay, the call recorded for `CCOC(=O)c1sc(N/N=C2\NC(=O)/C(=C/c3ccc([N+](=O)[O-])cc3)S2)nc1C` was what?
Marked response: inactive

Exam item: In this assay, the call recorded for CN(C)c1ccc(C2SCC(=O)N2NS(=O)(=O)c2cccc(C(=O)O)c2)cc1 (centres undefined) was what?
Marked response: active
